src = the Deep4Chem optical property database

- TEST: photoluminescence quantum yield (fraction); solvent given as SMILES
- PROTOCOL_CONDITIONS: in ClCCl
PROPERTY_LABEL: photoluminescence quantum yield

# count of solved cases: 3
[[record]]
molecule = "CCCCCCCCOc1ccc2c3cccc4c(OCCCCCCCC)ccc(c5cccc1c52)c43"
result = 0.81

[[record]]
molecule = "COc1ccc(-c2c3cc4ccccc4cc3c(C#Cc3ccccc3)c3cc4ccccc4cc23)cc1"
result = 0.02

[[record]]
molecule = "Cc1cc(-c2ccccc2C)cc(C)[o+]1"
result = 0.05


[1] Fc1ccccc1-c1c2cc(Cl)ccc2nc2cc3ccccc3cc12
[2] O=C1c2ccccc2C2=Nc3cccc4cccc(c34)N12
Field: lower recorded photoluminescence quantum yield (choose 1 or 2 ) Your answer should be the label attached to the chosen record.
2
